# target_desc: HCV NS3h (Hepatitis C virus genotype 1b)
# Sequence (Q9WMX2 1192-1657): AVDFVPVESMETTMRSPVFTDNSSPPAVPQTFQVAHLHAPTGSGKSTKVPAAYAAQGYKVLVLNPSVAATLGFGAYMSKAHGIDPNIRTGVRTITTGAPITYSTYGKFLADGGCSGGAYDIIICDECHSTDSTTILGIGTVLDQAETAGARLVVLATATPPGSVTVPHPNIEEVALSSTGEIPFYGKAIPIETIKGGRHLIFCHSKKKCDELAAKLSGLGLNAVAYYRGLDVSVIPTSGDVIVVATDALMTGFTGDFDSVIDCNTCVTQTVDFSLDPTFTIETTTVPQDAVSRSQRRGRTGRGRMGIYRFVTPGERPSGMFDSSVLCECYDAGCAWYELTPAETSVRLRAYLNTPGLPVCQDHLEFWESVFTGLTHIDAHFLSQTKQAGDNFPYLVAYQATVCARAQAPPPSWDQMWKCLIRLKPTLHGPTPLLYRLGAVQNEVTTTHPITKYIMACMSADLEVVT
# procedure_details: HCV NS3h-catalyzed ATP hydrolysis assay
# Assay type: biochemical
# experimental_setup: read-out: HCV ATPase IC50
# pIC50 per entry
# pIC50 is unitless: minus log10 of the molar concentration; print number only

>>> print(df.to_string())
                           smiles_structure  readout_kind  obs_value
0  Cc1ccc2nc(-c3ccc4nc(-c5ccc(NC(=O)c6ccc(NC(=O)OCC7c8ccccc8-c8ccccc87)cc6)cc5)sc4c3)sc2c1S(=O)(=O)O         pIC50       4.41

Which pIC50 value is on record for `Cc1ccc2nc(-c3ccc4nc(-c5ccc(NC(=O)c6c(F)cccc6C(F)(F)F)cc5)sc4c3)sc2c1S(=O)(=O)O` ?
4.03

----------
In this section, each of the compounds is paired with its reported pIC50.
# target_desc: UniProt:Q91H74
# Sequence (Q91H74 1646-2093 limits assumed): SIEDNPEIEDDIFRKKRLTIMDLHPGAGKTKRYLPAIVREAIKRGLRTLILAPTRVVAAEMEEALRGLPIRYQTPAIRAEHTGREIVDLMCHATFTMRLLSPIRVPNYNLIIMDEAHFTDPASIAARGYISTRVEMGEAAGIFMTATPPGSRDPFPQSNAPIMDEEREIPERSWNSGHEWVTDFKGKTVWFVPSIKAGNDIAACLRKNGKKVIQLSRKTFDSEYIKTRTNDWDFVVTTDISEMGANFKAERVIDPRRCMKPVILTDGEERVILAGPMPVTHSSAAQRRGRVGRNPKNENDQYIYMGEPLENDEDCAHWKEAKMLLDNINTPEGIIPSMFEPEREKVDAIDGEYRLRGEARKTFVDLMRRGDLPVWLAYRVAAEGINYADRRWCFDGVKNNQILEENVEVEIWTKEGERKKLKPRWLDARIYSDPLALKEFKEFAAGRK
# Format: biochemical
# experimental_setup: read-out: DENV ATPase IC50; DENV NS3h-catalyzed ATP hydrolysis; 100 μM ATP, poly(U) RNA, pH 7.5
# log scale: pIC50 equals minus log10 of the concentration in mol/L

Some solved entries appear below for comparison.
>>> df
                           smiles_structure     target_desc  readout_kind  obs_value
0  Cc1ccc2nc(-c3ccc4nc(-c5ccc(NC(=O)c6ccc(C(F)(F)F)c(F)c6)cc5)sc4c3)sc2c1S(=O)(=O)O  UniProt:Q91H74         pIC50       5.46
1  Cc1ccc2nc(-c3ccc4nc(-c5ccc(NC(=O)c6ccc(NC(=O)OCC7c8ccccc8-c8ccccc87)cc6)cc5)sc4c3)sc2c1S(=O)(=O)O  UniProt:Q91H74         pIC50       5.89
2  Cc1ccc2nc(-c3ccc4nc(-c5ccc(NC(=O)c6ccc(N(C)C)cc6)cc5)sc4c3)sc2c1S(=O)(=O)O  UniProt:Q91H74         pIC50       5.47
3  Cc1ccc2nc(-c3ccc4nc(-c5ccc(NC(=O)c6ccccc6)cc5)sc4c3)sc2c1S(=O)(=O)O  UniProt:Q91H74         pIC50       5.28
4  Cc1ccc2nc(-c3ccc4nc(-c5ccc(NC(=O)c6ccc(C(C)(C)C)cc6)cc5)sc4c3)sc2c1S(=O)(=O)O  UniProt:Q91H74         pIC50       5.40
5  Cc1ccc2nc(-c3ccc4nc(-c5ccc(NC(=O)c6ccc(Cl)c(Cl)c6)cc5)sc4c3)sc2c1S(=O)(=O)O  UniProt:Q91H74         pIC50       5.57
6  Cc1ccc2nc(-c3ccc4nc(-c5ccc(NC(=O)c6ccc(F)cc6)cc5)sc4c3)sc2c1S(=O)(=O)O  UniProt:Q91H74         pIC50       5.52
7  COc1ccc(C(=O)Nc2ccc(-c3nc4ccc(-c5nc6ccc(C)c(S(=O)(=O)O)c6s5)cc4s3)cc2)cc1  UniProt:Q91H74         pIC50       5.52
8  Cc1ccc2nc(-c3ccc4nc(-c5ccc(NC(=O)c6ccc(Br)cc6)cc5)sc4c3)sc2c1S(=O)(=O)O  UniProt:Q91H74         pIC50       5.96
9  Cc1ccc2nc(-c3ccc4nc(-c5ccc(NC(=O)c6cc(F)cc(C(F)(F)F)c6)cc5)sc4c3)sc2c1S(=O)(=O)O  UniProt:Q91H74         pIC50       4.96

Would you kindly share the measured pIC50 for `Cc1ccc2nc(-c3ccc4nc(-c5ccc(NC(=O)c6cc(F)ccc6C(F)(F)F)cc5)sc4c3)sc2c1S(=O)(=O)O` ?
5.14

Can you look up the measured pIC50 of `Cc1ccc2nc(-c3ccc4nc(-c5ccc(NC(=O)c6cccc(C(F)(F)F)c6)cc5)sc4c3)sc2c1S(=O)(=O)O` for me?
5.01
